System: EZH2
Assay: Western blot of EZH2 protein expression in MDA-MB-468 cells
Type: cell-based, human
Conditions: inhibitor pretreatment, then 3 μM YC-1 for 6 h
readout: effect of inhibitor on YC-1-induced EZH2 inhibition

COc1cc2ncnc(Nc3ccc(Oc4ccccc4)cc3)c2cc1OC: attenuated
CNC(=O)c1cc(Oc2ccc(NC(=O)Nc3ccc(Cl)c(C(F)(F)F)c3)cc2)ccn1: attenuated

====

Tested on: EZH2
Assay: Western blot of EZH2 protein expression in MDA-MB-468 cells
Assay type: cell-based, human
Details: inhibitor pretreatment, then 3 μM YC-1 for 6 h
readout: effect of inhibitor on YC-1-induced EZH2 inhibition

O=c1onc2cnc3ccccc3n12: failed to have effects
O=c1onc2n1-c1cc(Br)ccc1OC2: failed to have effects
Cl.N [NH4Cl, reference compound]: not

Hello, the source for this data is patent US20140357688A1, in case you need it.
